Test: label from the status in PepcDB records
outcomeMeasure: protein production

// worked examples, protein production included
sequencecode=AEDPILRAIPENAFDGIAVTDAGGHVVYANSTYLALTGAATMQDVRPVERVFIGNPDVSEAVFRLLKAAREGRRLQEEVRVAGADGTQGRWMRLRVRPLGTSKREARQTVWSIADITRDRERQEDVFQTLQHAIEYLDHAPCGFFSVNPAGNLVYVNATLANWLDH outcomemeasure="protein production" endpointvalue=failed
sequencecode=VRIVLVGSGNLATQTALALSEAASPPVQVWSRNAEHAERLASMLPGATATDRTEELLCDAELYLLAVSDHALESVAATLPPTSGIWAHTAGSMPMDTLRPYHAQIGVFYPLQTFSRERRVDYSSIPIYIEGNDESVVRLLESVARLISRNVLRCT outcomemeasure="protein production" endpointvalue=failed
sequencecode=MKAQYFFWILFLIGFYWMIYLYQDFLMDALIAGLLCVGFFQVKVFLDKRFFNVVSSFLCVLILASVLIVPLYFIVYKSSNIIFEINFEKFSALIKWLKGIITENLSHFPTIHDGASKFLENFSAASITGYLLKISSYVGRYSLKLITDALFILGLLFFFFYYGERFYRYFLGVLPLGMNQSKKIFEEVAGILRIVLLTSLITVILEGVAFGVMIVWFGHDGWSLGILYGLASLVPAVGGALIWIPIAIYELYHGNVNEAIFIALYSILLISVLIDSVIKPILIVFIKKRIFKTTLKINEMLIFFSMIAGISQFGFWGIIVGPTITAFFIALLRLYENYFIQNEQKACE outcomemeasure="protein production" endpointvalue=failed
sequencecode=MAINLTPLIGFLPEFIISAIISGFLFQAITNDKTFVRPIIGGKKPEQKSILKKVSSRRKPVDMKEYERMKNKTRYQALLFNSNMHIISSSALTVSAWILLIYAMIGIGKSSIFMPTFGFKINFIVYALLVIIFSVAMISSFSQVVRLREIYRIIASVFAVLSVVIFFEIPAMKWLFYIFPKVIVSYIFIYFAGLFILFLCYSLWWKLAPKITFYVSFYSSILTYFAIVSLMIYNSIPKL outcomemeasure="protein production" endpointvalue=failed
sequencecode=MLNGDVTLRAWTNIWMFLIYGLAIFLEPIHNNIRHLPILVRGGIYSTLIIISEYITGSFLCFMLGTCPWHYSSGPFTIQGITRLDYFPYWLIAGLLFEKLHDALLKISINVEQSSS outcomemeasure="protein production" endpointvalue=failed

Input line: Fill in the blank: the reported protein production of MNQEKIADLKNWMHQEKIDFTYISDPGHIAYFSGYESEPHERVLALFIAADDQSFLFTPALEVEDAEKSSWTYPVYGYLDSENPWEKIAALLNKRTQGTPRFALEKQALSLARFDQLKTYFPASDFSHDVTPLIEKLQLIKTEPEIQRLLEAGSWADVAFEIGFKAIQAGVAEQEIVAEIEYQLKRQGIRSMSFDTLVLTGKNGASPHGVPGETKIEPHDLVLFDLGVVHNGYCSDATRTVSYLEPSDFQKEIYGIVLEAQLAATEAVKPGVTAGELDDIARGVITKAGYGEYFNHRLGHGIGTTVHEYPSLVHGNDLVIEEGMCFSIEPGIYIPGKVGVRIEDCLHVTKTGSEPFTKTTKELQIIQ is ____.
Output line: failed

* * *

Test: label from the status in PepcDB records
outcomeMeasure: protein production

Consider the worked cases shown below.
sequencecode=MVKPMHLFAVVDALEQAQQFQQVLASRDVSTELVQIEQLNARFLRHHPELALCVDLDGLWLSANGMKMQPDWQAEIPRLKRASLKSEMIARACQINEQPSLIDATAGLGHDSLLMAYLGAHVTLVERHPVLFTLLEDAKSKAENDPFLSKYMQRIHLIFQDAHYYLQQCNQDDRKVDVIYLDPMFPQRDQHHQVIKKQAQVKKQMQLLHLLLPEDGEMDLGDQLLPLAQQIASRVVVKRPKHAVFLNEQQPDHQWQGDACRFDAYFQISMLEHHHHHH outcomemeasure="protein production" endpointvalue=failed
sequencecode=MGMPAGPYLLTPPGVYAPQHDTDLLARALRREDIDTSTEVLDLGTGSGALAVHAARLGARVTAVDISRRAVLTARLNALLAGRRVTVRRGDLTAAVPGRSYDLVVSNPPYVPSPSARLPSRGAARAWDAGHDGRAFVDRICDTAPAALRAGGALLIVHSALCGTRPTLDRLAAAGLDASVTDRAFVPFGPVLRARRAWLRRQGLLTDENLEELVVIRAEHS outcomemeasure="protein production" endpointvalue=failed
sequencecode=MRAVIPYKKAGAKSRLSPVLSLQEREEFVELMLNQVISSLKGAGIEQVDILSPSVYGLEEMTEARVLLDEKDLNEALNRYLKEAEEPVLIVMADLPLLSPEHIKEISSTEKDVCIVPGKGGGTNALFIKNPSKYRVKYYGSSFLTHCSIATDSGQDFEIYDSFMAGTDIDEPEDLVELLIHGKGAAKDYIESKFRLEVKKGRVGLVPL outcomemeasure="protein production" endpointvalue="not failed"
sequencecode=MDLTKQFPRSPVDRLGGMDHLKRVIDKARAHVAGTLGEYTYNCPLDQAFFSFFGLDHEKFAEAVKSRPQDQDMLAWVHSQSPRSKNPKEVESFNREYESRSPDSPEKWDYFRSVRDSLAPGRTDITTWVKLLDLEEKRPV outcomemeasure="protein production" endpointvalue="not failed"
sequencecode=MSIIEDNKISFVIPTINEEKTIGSVIDGIHENFPNAEIILVDTNSTDKTKEIAKSKGATVIEEPRKGYGRAYQTGIPAAKGDIIVCMDGDGTYPTDIVKPLIEILILDKVDFISCDRITFRTSTNYTTLHYVGNMVLNLTIRILFKVRMVDSQSGMWIFRSELYKKMKNLGYGMSFSQNIKIEAVRHGVFIEIPIRYGVRITKPKLKTWHDGFHNLFALFIKRVSELEHHHHHH outcomemeasure="protein production" endpointvalue="not failed"

Input line: What does the data say about its protein production? Entry: DAPQGAVIILPGDAESPDWPDTVGPLRRKFPDVGWSSLSITLPDAQDNTLLPREPDAAAGDANAAKPEETPKDAAAKAPDPAAEAEALAAVATAKAAADEERNKAQAELIFARIESAISFAQQNKARNIVLLGHSSGAYWAARFLNERPSPAVQKLVMVAA
Output line: failed

Input line: Please report the recorded protein production for MSEREHWQRVYESKPSDAVSWFQAEATLSLDLIRRIGAPREAAIIDVGGGASTLVDGLLAEGFGDLTVLDLSDAALRVARNRLGARGEEVRWIAGDITGVDLPEATYDVWHDRAVFHFLTTAEARRAYVRQVMKAVRHGGHVIVATFAADGPTECSGLPVMRYDADELHAEFGSAFQLTEHRDEHHVTPAGRVQHFVYCHCLKRLLEHHHHHH .
Output line: failed

Values compiled from a protein production outcome set (Wang et al. 2014).
